Assay: Cellular Toxicity (caspase-3) H-4-II-E (AID 663);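 note: cells exposed to compound for 16 hr before readout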
Conditions: H-4-II-E rat hepatoma; at 92.2 µM (top of the series), scaled: DMSO 0%, 100 µM tamoxifen 100%
Results filed as inconclusive are left out.
readout: caspase-3 activation (%)
# number only, unit % dropped from output

Sample records with caspase-3 activation:
O=C1OC2(c3cc(Br)c(O)c(Br)c3Oc3c2cc(Br)c(O)c3Br)c2c(Cl)c(Cl)c(Cl)c(Cl)c21
-0.639
Cc1cc(Nc2ccc(O)cc2)ccc1N
20.7
O=C=Nc1ccc(Cc2ccc(N=C=O)cc2)cc1
1.23

Give a short answer stating reported caspase-3 activation for "CCCCCC/C(C=O)=C\c1ccccc1" .
0.146

Name the recorded caspase-3 activation of the item "C/C=C1\C(=O)C[C@H]2[C@@H]3CCC4=CC(=O)CC[C@]4(C)[C@H]3CC[C@]12C" in your answer.
22.9

Return reported caspase-3 activation. Input compound: "C=C(C)c1ccccc1"
1.07
